# credit: paper PMC9979163

# study.system: ZAC (Homo sapiens, UniProt Q401N2)
# Sequence (Q401N2 26-412): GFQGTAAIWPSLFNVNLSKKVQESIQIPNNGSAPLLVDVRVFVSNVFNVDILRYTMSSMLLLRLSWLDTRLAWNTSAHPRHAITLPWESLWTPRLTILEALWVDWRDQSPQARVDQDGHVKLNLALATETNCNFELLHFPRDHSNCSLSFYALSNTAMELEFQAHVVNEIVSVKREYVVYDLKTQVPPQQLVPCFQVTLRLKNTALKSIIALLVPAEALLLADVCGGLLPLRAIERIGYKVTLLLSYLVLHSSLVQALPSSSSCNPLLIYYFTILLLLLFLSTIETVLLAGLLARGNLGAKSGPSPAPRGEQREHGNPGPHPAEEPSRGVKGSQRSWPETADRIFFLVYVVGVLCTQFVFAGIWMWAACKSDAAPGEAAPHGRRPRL
# assay.details: FMP assay at ZAC-HEK293 cells
# assay.setup: ZAC-HEK293 cells, FMP assay, n = 4; read-out: EC50 (agonist)
# Experimental: The screening of the 1,680 compounds in the compound library for antagonist activity at the ZAC-HEK293 cell line was performed in the FMP assay essentially as previously described. […] The plate was then incubated at 37 °C for 30 min and assayed in a NOVOStar plate reader (BMG Labtechnologies, Offenburg, Germany) measuring emission at 560 nm caused by excitation at 530 nm before and up to 1 min after the addition of 33 μl of agonist solution. […]
outcome.measure: pEC50
FYI, pEC50 means -log10 of a concentration in mol per litre.

Prompt: Quickly give me recorded pEC50 for [Cl][Cu][Cl] [Cu^2+, CuCl2]
Response: 4.59
